- Test system: HUVEC
- Assay overview: Tested for adhesion of neutrophils to human umbilical vein endothelial cell at the dose of 100 uM
- Format: functional
Measured inhibition at 100 µM, listed per entry.
Recorded metric: inhibition at 100 µM

CC(C)Oc1c(C(N)=O)sc2ccc(OCc3ccccc3)cc12
< 4%
COc1ccc2c(OC(C)C)c(C(N)=O)sc2c1
24%
COc1ccc2sc(C(N)=O)c(Oc3ccccc3)c2c1
59%
CC(C)Oc1c(C(N)=O)sc2ccc(Cl)cc12
72%
CC(C)Oc1c(C(N)=O)sc2ccccc12
60%
CC(C)Oc1c(C(N)=O)sc2ccc(N)cc12
49%

###

- System: HUVEC
- Assay overview: Tested for adhesion of neutrophils to human umbilical vein endothelial cell at the dose of 100 uM
- Type: functional
Given measured inhibition at 100 µM, output class 1 if it is greater than or equal to 60% and class 0 if not.

CCNC(=O)c1sc2ccc(OC)cc2c1OC(C)C
class 1
COc1ccc2sc(C(N)=O)c(OCc3ccccc3)c2c1
class 0
COc1ccc2sc(C(N)=O)c(OC(C)(C)C)c2c1
class 1
COc1cccc2c(OC(C)C)c(C(N)=O)sc12
class 0
COc1ccc2sc(C(=O)Nc3ccccc3)c(OC(C)C)c2c1
class 0
